Molecular target: T1, Monomeric 8-histidine tagged human EGFRvIII extracellular domain (human, UniProt P00533 298-645)
T1 construct: Analyte in all SPR assays; not shown: 8-histidine tag
Test: SPR, scFv-Fc captured by anti-human Fc, 37 C
Description: The scFv fragment was then fused to human IgG1 Fc moiety to facilitate recombinant expression and purification. Affinities of the scFv-Fc fusion proteins were measured at 37° C. on a surface plasmon resonance Biacore™ T200 biosensor equipped with an anti-human Fc coupled CM4 sensor chip (GE Healthcare Inc., Piscataway, N.J.) as described above. scFv-Fc proteins were captured by anti-human Fc. […]
Recorded kon for the following binders
recordedMetric: kon (M⁻¹ s⁻¹)

binder	recordedMetric	readoutNumber
32A10.LH scFv-Fc protein (Fc fusion, LH: light-chain variable domain at the N-terminus; not shown: human IgG1 Fc moiety) EVVMTQSPATLSVSPGERVTLSCRASQSVSSNFAWYQQRPGQAPRLLLYGATTRATGLPGRFSGSGSGTENILTISSLQSEDFAIYFCQQYKDWPFTFGPGSKVDIKGGGGSGGGGSGGGGSGGGGSQVTLKESGPVLVKPTETLTLTCTVSGFSLSNARMGVSWIRQPPGKALEWLAHIFSTDEKSIRRSLRSRLTLSKDTSKSQVVLTMTNMDPVDTATYFCARDSSNYEGYFDYWGQGTLVTVSS	kon	41000
42G9.LH scFv-Fc protein (Fc fusion, LH: light-chain variable domain at the N-terminus; not shown: human IgG1 Fc moiety) EVVLTQSPATLSVSPGERATLSCRASQSVRSNLAWYQQKSGQAPRLLIYGSTIRATGVPARFSGSGSGTEFTLTISSLQSEDFAVYYCQQYSDWPFTFGPGTKVDIKGGGGSGGGGSGGGGSGGGGSQVTLKESGPVLLKPTETLTLTCTVSGFSLSNPRMGVSWIRQPPGKALEWFAHIFSTDEKSLKLSLRSRLTLSKDTSKSQVVLTMTNMAPVDSATYYCARDSSNYEGYFDFWGQGTLVTVSS	kon	40000
32A10.HL scFv-Fc protein (Fc fusion, HL: heavy-chain variable domain at the N-terminus; not shown: human IgG1 Fc moiety) QVTLKESGPVLVKPTETLTLTCTVSGFSLSNARMGVSWIRQPPGKALEWLAHIFSTDEKSIRRSLRSRLTLSKDTSKSQVVLTMTNMDPVDTATYFCARDSSNYEGYFDYWGQGTLVTVSSGGGGSGGGGSGGGGSGGGGSEVVMTQSPATLSVSPGERVTLSCRASQSVSSNFAWYQQRPGQAPRLLLYGATTRATGLPGRFSGSGSGTENILTISSLQSEDFAIYFCQQYKDWPFTFGPGSKVDIK	kon	47000

Reference source: patent US20190144550A1
